Biological target: T1, human α-CGRP (Homo sapiens, UniProt P06881)
T1 construct: 1-37 (WT); purchased; host or cells: synthetic peptide
T1 sequence (P06881 83-119 limits assumed): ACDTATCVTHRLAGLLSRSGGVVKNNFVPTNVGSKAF
Assay: Biacore affinity of antibody G1 Fab and variants to human α-CGRP
Assay type: binding
Details: 37° C., Fab, screening mode unless underlined
REPORTED METRIC: α-human koff (s⁻¹)
Dear colleague, please return just the value in s⁻¹, with no unit written.

Look over these answered cases.
[[record]]
molecule = "M28: G1 variant: L1 R28N,T30D; H2 E54R,A57N; HC-FW3 L99T,A100V (antibody, V domains shown) VH: EVQLVESGGGLVQPGGSLRLSCAASGFTFSNYWISWVRQAPGKGLEWVAEIRSRSDNSATHYAEAVKGRFTISRDNAKNSLYLQMNSLRAEDTAVYYCTVYFDYGLAIQNYWGQGTLVTVSS VL: EIVLTQSPATLSLSPGERATLSCKASKNVDTYVSWYQQKPGQAPRLLIYGASNRYLGIPARFSGSGSGTDFTLTISSLEPEDFAVYYCSQSYNYPYTFGQGTKLEIK"
reported_metric = "α-human koff"
recorded_result = "9.96e-05"

[[record]]
molecule = "M36: G1 variant: L1 R28N,T30R; HC-FW3 L99T,A100V (antibody, V domains shown) VH: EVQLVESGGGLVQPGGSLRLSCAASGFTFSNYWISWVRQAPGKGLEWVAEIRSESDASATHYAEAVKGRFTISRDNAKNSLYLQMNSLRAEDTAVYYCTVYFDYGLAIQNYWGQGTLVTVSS VL: EIVLTQSPATLSLSPGERATLSCKASKNVRTYVSWYQQKPGQAPRLLIYGASNRYLGIPARFSGSGSGTDFTLTISSLEPEDFAVYYCSQSYNYPYTFGQGTKLEIK"
reported_metric = "α-human koff"
recorded_result = 0.000239

[[record]]
molecule = "M45: G1 variant: L1 R28N; L2 G50A,L56T; H2 E54K,A57N,S58E,E64D; HC-FW3 L99T,A100V (antibody, V domains shown) VH: EVQLVESGGGLVQPGGSLRLSCAASGFTFSNYWISWVRQAPGKGLEWVAEIRSKSDNEATHYADAVKGRFTISRDNAKNSLYLQMNSLRAEDTAVYYCTVYFDYGLAIQNYWGQGTLVTVSS VL: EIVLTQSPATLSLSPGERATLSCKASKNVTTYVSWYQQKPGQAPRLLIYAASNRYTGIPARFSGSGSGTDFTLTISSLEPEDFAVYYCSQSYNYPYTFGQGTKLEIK"
reported_metric = "α-human koff"
recorded_result = 0.000211


With those in mind, consider the next molecule.
[ask] # query: α-human koff of entry M65: G1 variant: L1 R28N,T30G; L2 G50A,L56I; H2 E54K,A57C; HC-FW3 L99T,A100V (antibody, V domains shown) VH: EVQLVESGGGLVQPGGSLRLSCAASGFTFSNYWISWVRQAPGKGLEWVAEIRSKSDCSATHYAEAVKGRFTISRDNAKNSLYLQMNSLRAEDTAVYYCTVYFDYGLAIQNYWGQGTLVTVSS VL: EIVLTQSPATLSLSPGERATLSCKASKNVGTYVSWYQQKPGQAPRLLIYAASNRYIGIPARFSGSGSGTDFTLTISSLEPEDFAVYYCSQSYNYPYTFGQGTKLEIK
[reply] 0.000803

Values compiled from patent US10766952B2.
